- experiment: Cytotoxicity, CellTiter 96 (MTS) assay
- test_conditions: human, Cytotoxicity for HepG2 cells, IC50, 24 h incubation, 1–1000 µM
Quick reference: IC50 at 24 h of the listed items.
endpoint: IC50 at 24 h

>  <compound>
NNC(=O)c1ccncc1 [INH 1, Isoniazid, reference compound]

>  <readout_value>
> 1000 µM

$$$$
>  <compound>
C/C(=N\NC(=O)c1ccncc1)C(=O)Oc1cccc2ccccc12

>  <readout_value>
999 µM

$$$$
>  <compound>
C/C(=N\NC(=O)c1ccncc1)C(=O)Oc1ccc(Oc2ccccc2)cc1

>  <readout_value>
551 µM

$$$$
>  <compound>
C/C(=N\NC(=O)c1ccncc1)C(=O)OCCn1c([N+](=O)[O-])cnc1C

>  <readout_value>
> 1000 µM

$$$$
>  <compound>
C/C(=N\NC(=O)c1ccncc1)C(=O)Oc1cc(Cl)ccc1Oc1ccc(Cl)cc1Cl

>  <readout_value>
211 µM

$$$$
>  <compound>
C/C(=N\NC(=O)c1ccncc1)C(=O)Oc1ccc(Br)cc1

>  <readout_value>
> 1000 µM

$$$$
>  <compound>
C/C(=N\NC(=O)c1ccncc1)C(=O)Oc1ccc(Cl)cc1

>  <readout_value>
> 1000 µM

$$$$
>  <compound>
C/C(=N\NC(=O)c1ccncc1)C(=O)Oc1ccc(C)cc1

>  <readout_value>
> 1000 µM

$$$$
